Molecular target: SARS-CoV-2 M^pro (Severe acute respiratory syndrome coronavirus 2 (2019-nCoV) (SARS-CoV-2), UniProt P0DTD1)
assay-readout: Kd (µM)
Could you give me the number in µM? Just the number is fine.

Suppose we examine the compound C[C@H](NC(=O)C(c1cccnc1)N(C(=O)c1ccco1)c1ccc(-c2ccccc2)cc1)c1ccccc1 (single isomer, unassigned) [Compound 23R] ; what Kd value has been reported?
9.43

====

Biological target: SARS-CoV-2 M^pro (Severe acute respiratory syndrome coronavirus 2 (2019-nCoV) (SARS-CoV-2))
Assay: biochemical
Settings: read-out: SARS-CoV-2 M^pro IC50
assay-readout: pIC50
Scale note: pIC50 = -log10(concentration in M).

C[C@H](NC(=O)C(c1cccnc1)N(C(=O)c1c[nH]cn1)c1ccc(-c2ccccc2)cc1)c1ccccc1 (some centres unmarked) | 6.02

Now take the following molecule into account.
State the recorded pIC50 for this entry: C[C@H](NC(=O)C(c1cccnc1)N(C(=O)c1ccco1)c1ccc(-n2cccc2)cc1)c1ccccc1 (some centres unmarked)
6.03

====

Target: SARS-CoV-2 M^pro (Severe acute respiratory syndrome coronavirus 2 (2019-nCoV) (SARS-CoV-2), UniProt P0DTD1)
Assay: biochemical
Details: read-out: IC50 against SARS-CoV-2 M^pro
assay-readout: pIC50
When answering, recall that pIC50 equals minus log10 of the concentration in mol/L, and write that number alone.

Recorded pIC50, per entry:
C[C@H](NC(=O)[C@@H](c1cccnc1)N(C(=O)C(Cl)(Br)Br)c1ccc(-c2ccccc2)cc1)c1ccccc1 [Jun9-89-4R] | 7.30
C[C@H](NC(=O)C(c1cnccn1)N(C(=O)c1ccco1)c1ccc(-c2ccccc2)cc1)c1ccccc1 (stereo partly shown) [Jun9-4-4] | 6.55
C[C@H](NC(=O)C(c1cccnc1)N(C(=O)c1ccno1)c1ccc(C2CCCCC2)cc1)c1ccccc1 (stereo partly shown) [Compound 36] | 6.09
C[C@H](NC(=O)[C@@H](c1cccnc1)N(C(=O)CCl)c1ccc(-n2cccc2)cc1)c1ccccc1 [Jun9-57-3R] | 7.30
C=C(Cl)C(=O)N(c1ccc(-c2ccccc2)cc1)C(C(=O)N[C@@H](C)c1ccccc1)c1cccnc1 (stereo partly shown) [Jun10-38-2] | 5.37
C[C@H](NC(=O)[C@@H](c1cccnc1)N(C(=O)C(Br)(Br)Br)c1ccc(-c2ccccc2)cc1)c1ccccc1 [Jun9-88-6R] | 7.10
C[C@H](NC(=O)C(c1cccnc1)N(C(=O)c1ccno1)c1ccc(-c2ccccc2)cc1)c1ccccc1 (stereo partly shown) [Compound 25] | 5.61
C[C@H](NC(=O)[C@H](c1cccnc1)N(C(=O)C(Br)(Br)Br)c1ccc(-c2ccccc2)cc1)c1ccccc1 [Jun9-88-6S] | 5.15

So what does the record say about pIC50 for C[C@H](NC(=O)[C@H](c1cccnc1)N(C(=O)CCl)c1ccc(-n2cccc2)cc1)c1ccccc1 (stereo in doubt) [Jun9-57-3S] ?
5.95

Please do the same for C[C@H](NC(=O)C(c1cccnc1)N(C(=O)C(Cl)(Cl)Br)c1ccc(-c2ccccc2)cc1)c1ccccc1 (stereo partly shown) [Jun9-89-3] as well.
5.92

Please do the same for CC#CC(=O)N(c1ccc(-c2ccccc2)cc1)C(C(=O)N[C@@H](C)c1ccccc1)c1cccnc1 (stereo partly shown) [Jun9-62-1] as well.
5.94

What about C[C@@H](CCc1ccccc1)NC(=O)[C@@H](c1cccnc1)N(C(=O)C(Cl)Cl)c1ccc(-c2ccccc2)cc1 (single isomer, unassigned) [Jun9-90-4R] ?
6.34

// next record C[C@H](NC(=O)C(c1cnccn1)N(C(=O)c1c[nH]cn1)c1ccc(-c2ccccc2)cc1)c1ccccc1 (stereo partly shown) [Jun9-5-2]
6.17
